Origin of measurements: patent US9676789B2

Test system: Jurkat (acute lymphoblastic leukemia, ALL)
Test: MTT leukemia cell growth inhibition, 72 h
Type: cell-based, human
Settings: Homo sapiens, read-out: IC50
Description: Leukemia cell lines: K562/adr (drug-resistant, chronic myeloid leukemia, CML), NB4 (acute promyelocytic leukemia, AML), Kasumi-1 (acute myeloid leukemia M2 type, AML-M2), Jurkat (acute lymphoblastic leukemia, ALL), all of which are donated by Cancer Research Institute of Zhejiang University, China; and H9 (acute lymphoblastic leukemia, ALL), which is purchased from China Center for Type Culture Collection. […]
# IC50 annotations

Observe how each entry below is paired with its result.
| COMPOUND | QUANTITY_KIND | VALUE_MEASURED |
| --- | --- | --- |
| COC1=C[C@]23CCCN2CCc2cc4c(cc2[C@@H]3[C@@H]1OC(=O)[C@@](O)(CCCC(C)(C)O)CC(=O)N1CCCC(C)C1)OCO4 (some centres unmarked) [BS-HH-038] | IC50 | 1.47 µg/mL |
| COC1=C[C@]23CCCN2CCc2cc4c(cc2[C@@H]3[C@@H]1OC(=O)[C@@](O)(CCCC(C)(C)O)CC(=O)N1CCN(C)CC1)OCO4 [BS-HH-009] | IC50 | 3 µg/mL |
| COC1=C[C@]23CCCN2CCc2cc4c(cc2[C@@H]3[C@@H]1OC(=O)[C@@](O)(CCCC(C)(C)O)CC(=O)NCc1cccs1)OCO4 [BS-HH-055] | IC50 | 1.58 µg/mL |
| COC(=O)C[C@](O)(CCCC(C)(C)O)C(=O)O[C@@H]1C(OC)=C[C@]23CCCN2CCc2cc4c(cc2[C@H]13)OCO4 [HHT, reference compound] | IC50 | 0.007 µg/mL |
| COC1=C[C@]23CCCN2CCc2cc4c(cc2[C@@H]3[C@@H]1OC(=O)[C@@](O)(CCCC(C)(C)O)CC(=O)N1CCC(C#N)CC1)OCO4 [BS-HH-035] | IC50 | 0.87 µg/mL |
| COC1=C[C@]23CCCN2CCc2cc4c(cc2[C@@H]3[C@@H]1OC(=O)[C@@](O)(CCCC(C)(C)O)CC(=O)N1CCCC(O)C1)OCO4 (some centres unmarked) [BS-HH-025] | IC50 | > 16 µg/mL |
| COC1=C[C@]23CCCN2CCc2cc4c(cc2[C@@H]3[C@@H]1OC(=O)[C@@](O)(CCCC(C)(C)O)CC(=O)N1CCN(c2ccccn2)CC1)OCO4 [BS-HH-044] | IC50 | 0.48 µg/mL |
| COC1=C[C@]23CCCN2CCc2cc4c(cc2[C@@H]3[C@@H]1OC(=O)[C@@](O)(CCCC(C)(C)O)CC(=O)N1CCSCC1)OCO4 [BS-HH-014] | IC50 | 2 µg/mL |

IC50 reading for COC1=C[C@]23CCCN2CCc2cc4c(cc2[C@@H]3[C@@H]1OC(=O)[C@@](O)(CCCC(C)(C)O)CC(=O)NC1CCCCC1)OCO4 [BS-HH-042] : 0.037 µg/mL

Value of measured IC50 for the entry COC1=C[C@]23CCCN2CCc2cc4c(cc2[C@@H]3[C@@H]1OC(=O)[C@@](O)(CCCC(C)(C)O)CC(=O)N1CCC(N(C)C)CC1)OCO4 [BS-HH-050] : 0.12 µg/mL

Memo: COC1=C[C@]23CCCN2CCc2cc4c(cc2[C@@H]3[C@@H]1OC(=O)[C@@](O)(CCCC(C)(C)O)CC(=O)N1CC=CC1)OCO4 [BS-HH-018] , reported IC50: 0.88 µg/mL

* * *

System: RKO (human colon adenocarcinoma cell)
Assay: MTT solid tumor cell growth inhibition, 72 h
Format: cell-based
Conditions: Homo sapiens, read-out: IC90
Recorded IC90 by entry
# unit: µg/mL | format: bare number

Reference set, count: 4
| QUERY_SMILES | QUANTITY_KIND | VALUE_MEASURED |
| --- | --- | --- |
| COC1=C[C@]23CCCN2CCc2cc4c(cc2[C@@H]3[C@@H]1OC(=O)[C@@](O)(CCCC(C)(C)O)CC(=O)N1CCC(N(C)C)CC1)OCO4 | IC90 | 0.23 |
| COC1=C[C@]23CCCN2CCc2cc4c(cc2[C@@H]3[C@@H]1OC(=O)[C@@](O)(CCCC(C)(C)O)CC(=O)N1CCSCC1)OCO4 | IC90 | 5.36 |
| COC1=C[C@]23CCCN2CCc2cc4c(cc2[C@@H]3[C@@H]1OC(=O)[C@@](O)(CCCC(C)(C)O)CC(=O)N1CC=CC1)OCO4 | IC90 | 1.5 |
| COC1=C[C@]23CCCN2CCc2cc4c(cc2[C@@H]3[C@@H]1OC(=O)[C@@](O)(CCCC(C)(C)O)CC(=O)NC1CCCCC1)OCO4 | IC90 | 0.23 |

The observed IC90 for COC1=C[C@]23CCCN2CCc2cc4c(cc2[C@@H]3[C@@H]1OC(=O)[C@@](O)(CCCC(C)(C)O)CC(=O)N1CCN(c2ccc(F)cc2)CC1)OCO4 when tested with RKO (human colon adenocarcinoma cell) stands at 0.93

* * *

Test system: Becap37 (human breast cancer cell)
Test: MTT solid tumor cell growth inhibition, 72 h
Type: cell-based
Conditions: Homo sapiens; Becap37, 72 h; read-out: IC90
QUANTITY_KIND: IC90

| COMPOUND | IC90 |
| --- | --- |
| COC1=C[C@]23CCCN2CCc2cc4c(cc2[C@@H]3[C@@H]1OC(=O)[C@@](O)(CCCC(C)(C)O)CC(=O)NCc1ccc(C)o1)OCO4 | 16 µg/mL |
| COC1=C[C@]23CCCN2CCc2cc4c(cc2[C@@H]3[C@@H]1OC(=O)[C@@](O)(CCCC(C)(C)O)CC(=O)N1CCCC(O)C1)OCO4 (stereo partly drawn) | > 16 µg/mL |

Assay Becap37 (human breast cancer cell), sample COC1=C[C@]23CCCN2CCc2cc4c(cc2[C@@H]3[C@@H]1OC(=O)[C@@](O)(CCCC(C)(C)O)CC(=O)N1CCN(CCO)CC1)OCO4 , IC90 read: > 16 µg/mL

* * *

Tested on: RKO (human colon adenocarcinoma cell)
Test: MTT solid tumor cell growth inhibition, 72 h
Assay type: cell-based
Conditions: Homo sapiens, read-out: IC50
QUANTITY_KIND: IC50 (µg/mL)
The response must be a number in µg/mL with no trailing unit.

Take a look at these entries with their results.
| QUERY_SMILES | QUANTITY_KIND | VALUE_MEASURED |
| --- | --- | --- |
| COC1=C[C@]23CCCN2CCc2cc4c(cc2[C@@H]3[C@@H]1OC(=O)[C@@](O)(CCCC(C)(C)O)CC(=O)NCc1cccs1)OCO4 | IC50 | 2.75 |
| COC1=C[C@]23CCCN2CCc2cc4c(cc2[C@@H]3[C@@H]1OC(=O)[C@@](O)(CCCC(C)(C)O)CC(=O)N1CCN(C(C)C)CC1)OCO4 | IC50 | 0.18 |
| COC1=C[C@]23CCCN2CCc2cc4c(cc2[C@@H]3[C@@H]1OC(=O)[C@@](O)(CCCC(C)(C)O)CC(=O)N1CCN(c2ccc(F)cc2)CC1)OCO4 | IC50 | 0.054 |

Please examine the following record next.
// assay RKO (human colon adenocarcinoma cell), entry COC1=C[C@]23CCCN2CCc2cc4c(cc2[C@@H]3[C@@H]1OC(=O)[C@@](O)(CCCC(C)(C)O)CC(=O)N1CCSCC1)OCO4 , IC50 value = 1.25

* * *

System: NB4 (acute promyelocytic leukemia, AML)
Experiment: MTT leukemia cell growth inhibition, 72 h
Type: cell-based, human
Conditions: Homo sapiens; NB4, 72 h; read-out: IC50
Quick reference: IC50 of the listed items.
Just the number in µg/mL, nothing appended.

| COMPOUND | VALUE_UNITS | IC50 |
| --- | --- | --- |
| COC1=C[C@]23CCCN2CCc2cc4c(cc2[C@@H]3[C@@H]1OC(=O)[C@@](O)(CCCC(C)(C)O)CC(=O)N1CCN(c2ccc(F)cc2)CC1)OCO4 | µg/mL | 0.19 |
| COC(=O)C[C@](O)(CCCC(C)(C)O)C(=O)O[C@@H]1C(OC)=C[C@]23CCCN2CCc2cc4c(cc2[C@H]13)OCO4 [HHT, reference compound] | µg/mL | 0.006 |

Pending compound:
Briefly, IC50 measured for COC1=C[C@]23CCCN2CCc2cc4c(cc2[C@@H]3[C@@H]1OC(=O)[C@@](O)(CCCC(C)(C)O)CC(=O)N1CCN(C(C)C)CC1)OCO4 : 0.48

* * *

Test system: A549 (human lung cancer)
Assay: MTT solid tumor cell growth inhibition, 72 h
Format: cell-based
Conditions: Homo sapiens, A549, 72 h; read-out: IC50
IC50 listing for selected molecules.
Value expressed in µg/mL; do not type the unit.

Some entries whose results are on file:
| MOLECULE | SYSTEM_UNDER_TEST | IC50 / µg/mL |
| --- | --- | --- |
| COC1=C[C@]23CCCN2CCc2cc4c(cc2[C@@H]3[C@@H]1OC(=O)[C@@](O)(CCCC(C)(C)O)CC(=O)N1CCCCC1)OCO4 | A549 (human lung cancer) | 6.96 |
| CCN1CCN(C(=O)C[C@](O)(CCCC(C)(C)O)C(=O)O[C@@H]2C(OC)=C[C@]34CCCN3CCc3cc5c(cc3[C@H]24)OCO5)CC1 | A549 (human lung cancer) | 8.11 |
| COC(=O)C[C@](O)(CCCC(C)(C)O)C(=O)O[C@@H]1C(OC)=C[C@]23CCCN2CCc2cc4c(cc2[C@H]13)OCO4 [HHT, reference compound] | A549 (human lung cancer) | 0.03 |
| COC1=C[C@]23CCCN2CCc2cc4c(cc2[C@@H]3[C@@H]1OC(=O)[C@@](O)(CCCC(C)(C)O)CC(=O)N1CCN(C(C)C)CC1)OCO4 | A549 (human lung cancer) | 1.74 |
| COC1=C[C@]23CCCN2CCc2cc4c(cc2[C@@H]3[C@@H]1OC(=O)[C@@](O)(CCCC(C)(C)O)CC(=O)NC1CCCCC1)OCO4 | A549 (human lung cancer) | 0.45 |

Now examine the next entry.
The molecule COC1=C[C@]23CCCN2CCc2cc4c(cc2[C@@H]3[C@@H]1OC(=O)[C@@](O)(CCCC(C)(C)O)CC(=O)NCc1ccc(C)o1)OCO4 showed IC50 equal to 0.72
